systemName: IL-13 (human IL-13, preparation not specified) (human, UniProt P35225 35-146, limits assumed)
Sequence (P35225 35-146 limits assumed): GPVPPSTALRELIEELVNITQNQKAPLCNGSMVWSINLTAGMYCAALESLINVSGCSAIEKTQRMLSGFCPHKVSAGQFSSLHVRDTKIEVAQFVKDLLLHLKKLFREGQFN
assayOverview: cell-based or functional assay
reportedEndpoint: IC50, Eotaxin-1 assay, n = 3 (nM)
# output: bare number, implied unit nM

antibody 623 (antibody, V domains shown) VH: EVQLVESGGGLVKPGGSLRLSCAASGFTFSNAWMSWVRQAPGKGLEWVGRIRSEIDGGTTNYAAPVKGRFTISRDDSKNTLYLQMNSLKTEDTAVYYCATDQVGAYYGDYYGMDVWGQGTLVTVSS VL: SYELTQPPSVSVSPGQTARITCSGDALPEKYAYWYQQKSGQAPVLVIYEDSKRPSGIPERFSGSSSGTMATLTISGAQVEDEADYYCHSTDSSGNHGVFGGGTKLTVL : 0.035

Now for a further binder.
Query: Please look up its IC50, Eotaxin-1 assay, n = 3: antibody 643 (antibody, V domains shown, also called Ab 643; mAb 643) VH: EVQLVESGGGLVKPGGSLRLSCAASGFTFSNAWMSWVRQAPGKGLEWVGRIRSEIDGGTTNYAAPVKGRFTISRDDSKNTLYLQMNSLRTEDTAVYYCATDQVGAYYGDYYGMDVWGQGTLVTVSS VL: SYELTQPPSVSVSPGQTARITCSGDALPEKYAYWYQQKSGQAPVLVIYEDSKRPSGIPERFSGSSSGTMATLTISGAQVEDEADYYCHSTDSSGNHGVFGGGTKLTVL
Reply: 0.033

Each recorded value in this set is attributed to patent US20220281966A1.
